What IC50 was measured for each of the following?
Target: neurokinin-1 (NK-1) receptor (Homo sapiens)
Construct: endogenously expresses the neurokinin-1 (NK-1) receptor; endogenous in cells
Sequence (P25103 whole entry): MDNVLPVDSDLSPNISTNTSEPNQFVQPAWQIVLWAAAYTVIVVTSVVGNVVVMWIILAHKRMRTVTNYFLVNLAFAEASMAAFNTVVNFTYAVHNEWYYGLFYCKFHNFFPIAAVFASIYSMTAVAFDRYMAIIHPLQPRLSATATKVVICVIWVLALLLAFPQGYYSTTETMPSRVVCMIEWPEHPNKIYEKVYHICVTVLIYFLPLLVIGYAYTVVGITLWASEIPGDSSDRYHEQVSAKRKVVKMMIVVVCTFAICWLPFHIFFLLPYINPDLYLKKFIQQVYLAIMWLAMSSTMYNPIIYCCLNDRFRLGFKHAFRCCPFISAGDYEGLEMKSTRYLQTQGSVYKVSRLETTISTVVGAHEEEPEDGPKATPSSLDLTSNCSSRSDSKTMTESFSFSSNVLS
Experiment: NK-1 Binding assay ([125I] Substance P competition, U373 cell membranes)
Conditions: Bolton Hunter labeled [125I] Substance P, 30 min at 20° C.

# get_value(readout='IC50', item= CN(C)CCC(COCc1cc(C(F)(F)F)cc(C(F)(F)F)c1)c1ccccc1 (stereo not drawn) )
1 to 100 nM

# repeat for Cc1cccc(C(O)(CCN)COCc2cc(C(F)(F)F)cc(C(F)(F)F)c2)c1 (stereo not drawn)
1 to 100 nM

Further, for NCC(O)(COCc1cc(C(F)(F)F)cc(C(F)(F)F)c1)c1ccccc1 (stereo not drawn) ?
1 to 100 nM

Also Cc1cc(F)ccc1C(O)(CCN)COCc1cc(C(F)(F)F)cc(C(F)(F)F)c1 (stereo not drawn) , if possible.
1 to 100 nM

Do the same for NCCC(O)(COCc1cc(C(F)(F)F)cc(C(F)(F)F)c1)c1ccc(F)c(F)c1 (stereo not drawn) please
1 to 100 nM

Likewise for NCCC(O)(COCc1ccccc1F)c1ccccc1 (stereo not drawn) ?
> 300 nM

Can you check CNCCC(O)(COCc1cc(C(F)(F)F)cc(C(F)(F)F)c1)c1ccccc1 (stereo not drawn) next?
1 to 100 nM

Further, for Cc1ccc(C(O)(CCN)COCc2cc(C(F)(F)F)cc(C(F)(F)F)c2)c2ccccc12 (stereo not drawn) ?
100 to 300 nM

Thanks! And NCCC(O)(COCc1cc(C(F)(F)F)cc(C(F)(F)F)c1)c1ccc(Cl)cc1 (stereo not drawn) ?
1 to 100 nM

---

What pIC50 was measured for each of the following?
Target: UniProt P31645
Sequence (P31645 whole entry): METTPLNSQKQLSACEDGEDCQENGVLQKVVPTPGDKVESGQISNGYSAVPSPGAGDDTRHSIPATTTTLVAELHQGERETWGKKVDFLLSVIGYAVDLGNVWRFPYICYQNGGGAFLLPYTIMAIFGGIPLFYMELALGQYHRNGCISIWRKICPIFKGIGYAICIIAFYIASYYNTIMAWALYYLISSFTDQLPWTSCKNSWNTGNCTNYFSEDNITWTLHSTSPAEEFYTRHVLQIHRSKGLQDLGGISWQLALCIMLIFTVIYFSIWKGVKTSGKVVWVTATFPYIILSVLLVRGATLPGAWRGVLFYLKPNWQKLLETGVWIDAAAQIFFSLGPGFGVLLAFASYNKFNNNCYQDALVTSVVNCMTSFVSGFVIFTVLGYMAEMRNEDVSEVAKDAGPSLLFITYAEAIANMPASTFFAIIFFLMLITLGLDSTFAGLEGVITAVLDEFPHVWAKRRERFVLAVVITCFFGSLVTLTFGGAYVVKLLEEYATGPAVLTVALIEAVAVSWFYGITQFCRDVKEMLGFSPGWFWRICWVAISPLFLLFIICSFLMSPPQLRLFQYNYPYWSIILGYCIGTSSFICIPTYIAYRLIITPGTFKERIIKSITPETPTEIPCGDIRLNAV
pIC50: −log10 of the molar value.

Given the compound NCCC(O)(COCc1ccccc1)c1ccccc1 (stereo not drawn) , what is its reported pIC50?
< 6.52

For NCCC(O)(COCc1ccc(OC(F)(F)F)cc1)c1ccccc1 (stereo not drawn) then?
< 6.52

Now the same for CC(CCN)(COCc1cc(C(F)(F)F)cc(C(F)(F)F)c1)c1ccccc1 (stereo not drawn)
7.00 to 9.00

Same lookup for Cc1ccc(C(O)(CCN)COCc2cc(C(F)(F)F)cc(C(F)(F)F)c2)c(C)c1 (stereo not drawn) , please.
7.00 to 9.00

Another compound to check: NCCC(O)(COCc1cc(C(F)(F)F)cc(C(F)(F)F)c1)c1ccc(Cl)c(Cl)c1 (stereo not drawn)
6.52 to 7.00

Do the same for NCCC(O)(COCc1cc(Cl)cc(Cl)c1)c1ccccc1 (stereo not drawn) please
7.00 to 9.00

Now give it for NCCC(O)(COCc1cc(C(F)(F)F)cc(C(F)(F)F)c1)c1ccc(F)cc1 (stereo not drawn) too.
7.00 to 9.00

Could you do the same for NCCC(O)(COCc1cc(C(F)(F)F)cc(C(F)(F)F)c1)c1cc(F)cc(Cl)c1 (stereo not drawn) , please?
6.52 to 7.00

Next: COc1ccc(F)cc1C(O)(CCN)COCc1cc(C(F)(F)F)cc(C(F)(F)F)c1 (stereo not drawn)
6.52 to 7.00

// same read-out, input: Cc1cc(C)cc(COCC(O)(CCN)c2ccccc2)c1 (stereo not drawn)
7.00 to 9.00

Also need Cc1c(F)cccc1C(O)(CCN)COCc1cc(C(F)(F)F)cc(C(F)(F)F)c1 (stereo not drawn) , thanks.
7.00 to 9.00

Quick one: Cc1ccc(C(O)(CCN)COCc2cc(C(F)(F)F)cc(C(F)(F)F)c2)cc1F (stereo not drawn)
7.00 to 9.00

Quick one: NCCC(O)(COCc1cc(C(F)(F)F)cc(C(F)(F)F)c1)c1ccc2ccccc2c1 (stereo not drawn)
7.00 to 9.00

And then Cc1ccc(C(O)(CCN)COCc2cc(C(F)(F)F)cc(C(F)(F)F)c2)cc1 (stereo not drawn) , what is it?
7.00 to 9.00

What would you report for NCCC(O)(COCc1ccc(Cl)cc1)c1ccccc1 (stereo not drawn) ?
7.00 to 9.00

Another: COc1ccc(OC)c(C(O)(CCN)COCc2cc(C(F)(F)F)cc(C(F)(F)F)c2)c1 (stereo not drawn)
7.00 to 9.00

Another compound to look at: CNCCC(C)(COCc1cc(C(F)(F)F)cc(C(F)(F)F)c1)c1ccccc1 (stereo not drawn)
6.52 to 7.00

Thanks! And CN(C)CCC(C)(COCc1cc(C(F)(F)F)cc(C(F)(F)F)c1)c1ccccc1 (stereo not drawn) ?
7.00 to 9.00

Follow-up item: NCCC(O)(COCc1ccccc1Br)c1ccccc1 (stereo not drawn)
7.00 to 9.00

Please answer likewise for CN(C)CCC(COCc1cc(C(F)(F)F)cc(C(F)(F)F)c1)c1ccccc1 (stereo not drawn)
7.00 to 9.00

Follow-up item: Cc1cccc(C(O)(CCN)COCc2cc(C(F)(F)F)cc(C(F)(F)F)c2)c1C (stereo not drawn)
7.00 to 9.00

Check Cc1cccc(COCC(O)(CCN)c2ccccc2)c1 (stereo not drawn) too.
7.00 to 9.00

Can you check CN(C)c1ccc(C(O)(CCN)COCc2cc(C(F)(F)F)cc(C(F)(F)F)c2)cc1 (stereo not drawn) next?
< 6.52

Do the same for Cc1ccc(C(O)(CCN)COCc2cc(C(F)(F)F)cc(C(F)(F)F)c2)cc1C (stereo not drawn) please
7.00 to 9.00

Same question, NCCC(O)(COCc1cc(C(F)(F)F)cc(C(F)(F)F)c1)c1cccc(Cl)c1 (stereo not drawn) this time
7.00 to 9.00

Do the same for CNCCC(O)(COCc1cc(C(F)(F)F)cc(C(F)(F)F)c1)c1ccccc1 (stereo not drawn) please
7.00 to 9.00

Entry to check: NCCC(O)(CSCc1cc(C(F)(F)F)cc(C(F)(F)F)c1)c1ccccc1 (stereo not drawn)
7.00 to 9.00

Then CN(C)CCC(O)(COCc1cc(C(F)(F)F)cc(C(F)(F)F)c1)c1ccccc1 (stereo not drawn) ?
< 6.52

Please answer likewise for NCCC(O)(COCc1cc(C(F)(F)F)cc(C(F)(F)F)c1)c1cc(F)cc(F)c1 (stereo not drawn)
6.52 to 7.00

Next up: CC(CN)(COCc1cc(C(F)(F)F)cc(C(F)(F)F)c1)c1ccccc1 (stereo not drawn)
6.52 to 7.00
